Target: T1, C-terminally 6x Histidine-tagged Beta-Catenin (aa 134-668, 59 KD) (UniProt P35222 134-668)
T1 construct: range 134-668; Armadillo repeat region
T1 sequence: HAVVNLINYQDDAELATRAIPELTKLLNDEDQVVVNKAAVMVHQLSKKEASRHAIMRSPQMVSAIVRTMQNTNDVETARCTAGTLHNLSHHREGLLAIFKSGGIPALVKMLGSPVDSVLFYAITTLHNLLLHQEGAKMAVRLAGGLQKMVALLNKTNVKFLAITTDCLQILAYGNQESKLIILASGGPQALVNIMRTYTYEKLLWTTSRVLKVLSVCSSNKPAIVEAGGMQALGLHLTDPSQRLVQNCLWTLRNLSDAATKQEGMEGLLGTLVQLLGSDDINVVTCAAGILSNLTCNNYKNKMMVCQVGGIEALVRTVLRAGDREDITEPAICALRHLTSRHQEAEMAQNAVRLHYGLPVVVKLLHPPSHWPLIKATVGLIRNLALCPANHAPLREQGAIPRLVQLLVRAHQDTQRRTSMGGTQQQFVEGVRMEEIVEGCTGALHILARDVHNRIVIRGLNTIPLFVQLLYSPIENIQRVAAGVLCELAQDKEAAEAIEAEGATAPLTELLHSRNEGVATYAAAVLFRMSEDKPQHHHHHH
Assay: competitive fluorescence polarization, FAM-labelled linear probe as competitor, His-tagged beta-catenin 134-668
quantity.measured: IC50 (nM)
# output: bare number, implied unit nM

LGANDELISFADEGAQEEKSSNNSSAARDLAAVKSSLV (not fully specified; N-terminal acetyl; C-terminal amide; $ = (S)-alpha-(2'-pentenyl)alanine at positions 11 and 15 (first crosslink) and 27 and 31 (second crosslink), each pair joined by an all-carbon crosslinker with one double bond) [SP59] = 300

Now turn to the next binder.
## Input Form field: reported IC50 of LGANDELISFANEGAQEEKSSNNSSAARNLADVKSSLV (not fully specified; N-terminal acetyl; C-terminal amide; $ = (S)-alpha-(2'-pentenyl)alanine at positions 11 and 15 (first crosslink) and 27 and 31 (second crosslink), each pair joined by an all-carbon crosslinker with one double bond) [SP64]
## Output 541
